system: CEMSS (-A3G) cells; type: cell-based
readout_name: CC50

compound | readout_name | result
Cc1nnc2ccc(-c3cccc(NS(=O)(=O)c4cc(F)ccc4F)c3)nn12 | CC50 | > 25 µM
O=C(NC1(C(F)(F)F)Oc2ccc(Cl)cc2O1)N1CCC2(CC1)OCCO2 (stereo not drawn) | CC50 | > 25 µM

Let's switch to this compound now.
*Q* Looking for the measured CC50 of FC(F)(F)c1nnc2c3ccccc3c(Cl)nn12 , can you help?
*A* 9.7 µM

====

system: A3.01 (+A3G) cells; type: cell-based
readout_name: CC50

Some compounds with recorded CC50:
compound | system_under_test | CC50
Cc1nnc2ccc(-c3cccc(NS(=O)(=O)c4cc(F)ccc4F)c3)nn12 | A3.01 (+A3G) cells | > 25 µM
FC(F)(F)c1nnc2c3ccccc3c(Cl)nn12 | A3.01 (+A3G) cells | 4.9 µM

From here, focus on the item given below.
*Q* I would be grateful if you could share the reported CC50 for O=C(NC1(C(F)(F)F)Oc2ccc(Cl)cc2O1)N1CCC2(CC1)OCCO2 (stereo not drawn) .
*A* > 25 µM
